assay system: Adrenergic receptor alpha-1 (Rattus norvegicus, UniProt P15823+P23944+P43140)
test summary: Displacement of [3H]prazosin from Alpha-1 adrenergic receptor in rat brain
Assay type: tissue-based
assay metric: Ki (nM)
Respond numerically; units are nM and should not be typed.

In: // fetch Ki given entry O=C1Cc2cc(CCN3CCN(c4nsc5ccccc45)CC3)c(Cl)cc2N1 [ZIPRASIDONE]
Out: 11

In: // fetch Ki given entry CC1(C)C(=O)Nc2ccc(CCN3CCN(c4nsc5ccccc45)CC3)cc21
Out: 2.1

In: // fetch Ki given entry CCN1C(=O)Cc2cc(CCN3CCN(c4nsc5ccccc45)CC3)ccc21
Out: 4.5

In: // fetch Ki given entry Oc1nc2ccc(CCN3CCN(c4nsc5ccccc45)CC3)cc2s1
Out: 2.3

In: // fetch Ki given entry O=C1Cc2cc(CCN3CCN(c4nsc5ccccc45)CC3)ccc2N1
Out: 3

In: // fetch Ki given entry O=C1Cc2cc(CCN3CCN(c4nsc5ccccc45)CC3)c(F)cc2N1
Out: 6.5

In: // fetch Ki given entry Oc1nc2ccc(CCN3CCN(c4nsc5ccccc45)CC3)cc2o1
Out: 4.2

In: // fetch Ki given entry O=C1CC2(CCCC2)CC(=O)N1CCCCN1CCN(c2nsc3ccccc23)CC1 [TIOSPIRONE]
Out: 1.5

In: // fetch Ki given entry O=C1Nc2ccc(CCN3CCN(c4nsc5ccccc45)CC3)cc2C12CCCC2
Out: 5.1

---

assay system: Adrenergic receptor alpha-1 (Rattus norvegicus, UniProt P15823+P23944+P43140)
Sequence (P15823 whole entry): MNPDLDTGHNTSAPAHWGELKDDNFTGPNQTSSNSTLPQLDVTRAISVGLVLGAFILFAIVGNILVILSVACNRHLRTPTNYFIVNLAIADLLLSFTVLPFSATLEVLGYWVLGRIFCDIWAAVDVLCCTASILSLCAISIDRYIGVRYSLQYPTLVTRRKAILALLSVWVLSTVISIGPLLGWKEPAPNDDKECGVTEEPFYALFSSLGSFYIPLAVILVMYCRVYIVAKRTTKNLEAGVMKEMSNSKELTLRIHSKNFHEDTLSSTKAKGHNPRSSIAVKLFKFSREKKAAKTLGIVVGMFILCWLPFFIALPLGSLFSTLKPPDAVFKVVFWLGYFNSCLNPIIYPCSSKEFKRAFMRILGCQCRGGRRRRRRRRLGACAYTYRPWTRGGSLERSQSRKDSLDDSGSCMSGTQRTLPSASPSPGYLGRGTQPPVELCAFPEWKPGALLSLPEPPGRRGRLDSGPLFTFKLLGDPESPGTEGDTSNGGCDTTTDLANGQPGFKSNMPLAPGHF
Sequence (P23944 whole entry): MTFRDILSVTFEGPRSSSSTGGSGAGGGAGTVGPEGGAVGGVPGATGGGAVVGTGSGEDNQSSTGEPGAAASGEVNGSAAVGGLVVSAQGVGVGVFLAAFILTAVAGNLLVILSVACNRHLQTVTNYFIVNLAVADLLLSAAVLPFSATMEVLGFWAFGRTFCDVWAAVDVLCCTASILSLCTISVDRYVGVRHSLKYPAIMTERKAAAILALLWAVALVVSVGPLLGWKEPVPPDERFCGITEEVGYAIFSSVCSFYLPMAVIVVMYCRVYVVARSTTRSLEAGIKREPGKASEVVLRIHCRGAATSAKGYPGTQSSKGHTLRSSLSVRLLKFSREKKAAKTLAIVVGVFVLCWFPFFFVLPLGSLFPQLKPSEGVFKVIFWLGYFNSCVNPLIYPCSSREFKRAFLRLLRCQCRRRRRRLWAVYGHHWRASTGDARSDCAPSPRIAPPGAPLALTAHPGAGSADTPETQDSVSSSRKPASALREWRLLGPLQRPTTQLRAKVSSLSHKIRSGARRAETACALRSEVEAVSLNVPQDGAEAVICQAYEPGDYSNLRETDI
Sequence (P43140 whole entry): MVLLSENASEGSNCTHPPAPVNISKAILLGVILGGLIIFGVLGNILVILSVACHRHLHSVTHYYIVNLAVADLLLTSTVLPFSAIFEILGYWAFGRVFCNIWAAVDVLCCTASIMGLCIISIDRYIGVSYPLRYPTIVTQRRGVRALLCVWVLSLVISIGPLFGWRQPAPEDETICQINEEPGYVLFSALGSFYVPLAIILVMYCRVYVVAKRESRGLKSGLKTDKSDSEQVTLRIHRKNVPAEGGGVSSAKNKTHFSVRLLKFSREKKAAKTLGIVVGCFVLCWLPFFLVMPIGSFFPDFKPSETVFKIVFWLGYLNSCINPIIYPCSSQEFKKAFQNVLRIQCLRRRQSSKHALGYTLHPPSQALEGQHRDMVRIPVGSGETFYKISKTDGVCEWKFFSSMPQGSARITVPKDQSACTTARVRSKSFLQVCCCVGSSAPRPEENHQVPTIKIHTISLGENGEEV
test summary: Displacement of [3H]prazosin from rat brain Alpha-1 adrenergic receptor
Could you please report measured Log Ki for the items listed next?
Give a plain numeric answer without units written out.

In: Provide Log Ki, system Adrenergic receptor alpha-1 (Rattus norvegicus, UniProt P15823+P23944+P43140), entry CCN1C(=O)Cc2cc(CCN3CCN(c4nsc5ccccc45)CC3)ccc21
Out: -8.35

In: Provide Log Ki, system Adrenergic receptor alpha-1 (Rattus norvegicus, UniProt P15823+P23944+P43140), entry CC1(C)C(=O)Nc2ccc(CCN3CCN(c4nsc5ccccc45)CC3)cc21
Out: -8.68

In: Provide Log Ki, system Adrenergic receptor alpha-1 (Rattus norvegicus, UniProt P15823+P23944+P43140), entry O=C1CC2(CCCC2)CC(=O)N1CCCCN1CCN(c2nsc3ccccc23)CC1 [TIOSPIRONE]
Out: -8.83

In: Provide Log Ki, system Adrenergic receptor alpha-1 (Rattus norvegicus, UniProt P15823+P23944+P43140), entry O=C1Cc2cc(CCN3CCN(c4nsc5ccccc45)CC3)c(F)cc2N1
Out: -8.19

In: Provide Log Ki, system Adrenergic receptor alpha-1 (Rattus norvegicus, UniProt P15823+P23944+P43140), entry O=C1Cc2cc(CCN3CCN(c4nsc5ccccc45)CC3)c(Cl)cc2N1 [ZIPRASIDONE]
Out: -7.98

In: Provide Log Ki, system Adrenergic receptor alpha-1 (Rattus norvegicus, UniProt P15823+P23944+P43140), entry O=C1Nc2ccc(CCN3CCN(c4nsc5ccccc45)CC3)cc2C12CCCC2
Out: -8.29

In: Provide Log Ki, system Adrenergic receptor alpha-1 (Rattus norvegicus, UniProt P15823+P23944+P43140), entry O=C1Cc2cc(CCN3CCN(c4nsc5ccccc45)CC3)ccc2N1
Out: -8.52

In: Provide Log Ki, system Adrenergic receptor alpha-1 (Rattus norvegicus, UniProt P15823+P23944+P43140), entry Oc1nc2ccc(CCN3CCN(c4nsc5ccccc45)CC3)cc2o1
Out: -8.38

In: Provide Log Ki, system Adrenergic receptor alpha-1 (Rattus norvegicus, UniProt P15823+P23944+P43140), entry Oc1nc2ccc(CCN3CCN(c4nsc5ccccc45)CC3)cc2s1
Out: -8.63
